# Experimental system: recombinant human PAI-1 (Homo sapiens, UniProt P05121)
# Sequence (P05121 24-402): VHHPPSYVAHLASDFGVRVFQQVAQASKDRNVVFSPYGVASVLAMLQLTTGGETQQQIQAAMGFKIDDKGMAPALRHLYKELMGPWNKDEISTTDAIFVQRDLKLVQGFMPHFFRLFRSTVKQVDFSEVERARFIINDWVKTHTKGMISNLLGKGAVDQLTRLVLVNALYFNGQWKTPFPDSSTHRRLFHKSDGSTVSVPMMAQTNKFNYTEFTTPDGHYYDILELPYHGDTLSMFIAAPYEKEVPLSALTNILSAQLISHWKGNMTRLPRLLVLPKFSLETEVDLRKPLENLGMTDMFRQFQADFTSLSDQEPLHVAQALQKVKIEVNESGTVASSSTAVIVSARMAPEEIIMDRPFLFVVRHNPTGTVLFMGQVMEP
# Protocol details: Test Example 2: Human PAI-1 Inhibitory Activity (pH 7.4 HEPES buffer, 10 minutes incubation with two-chain tPA)
# Type: biochemical
# Set-up: purchased Molecular Innovations, Inc
# Test conditions: read-out: Inhibition Rate of PAI-1 Activity (%)
In this section we review reported inhibition at 0.3 µM values for a set of compounds.
Please state the figure in %; there is no need to write the unit.

Input: Which inhibition at 0.3 µM reading was recorded for the compound Cc1ccc(N(Cc2ccc(C(C)(C)C)cc2)C(=O)C(=O)O)cc1-c1ccc(OC(F)(F)F)cc1 ?
Output: 10

---
Input: Which inhibition at 0.3 µM reading was recorded for the compound CC(C)(C)c1ccc(Oc2cc(-c3ccc4ccccc4c3)ccc2CCC(=O)O)cc1 ?
Output: 16

Input: What do you get for CC(C)(C)c1ccc(COc2cc(Oc3ccc(OC(F)(F)F)cc3)ccc2CCC(=O)O)cc1 ?
Output: 4

* * *

In this section we review reported inhibition at 0.3 µM values for a set of compounds.
# Experimental system: recombinant human PAI-1 (Homo sapiens, UniProt P05121)
# Protocol details: Test Example 2: Human PAI-1 Inhibitory Activity (pH 7.4 HEPES buffer, 10 minutes incubation with two-chain tPA)
# Format: biochemical
# Parameters: purchased Molecular Innovations, Inc
# Test conditions: read-out: Inhibition Rate of PAI-1 Activity (%)
Please state the figure in %; there is no need to write the unit.

Solved entries (count: 5):
Input: Which inhibition at 0.3 µM reading was recorded for the compound CC(C)c1ccc(Oc2ccc(CCC(=O)O)c(Oc3ccc(C(C)C)cc3)c2)cc1 ?
Output: 6

Input: What do you get for CCCCC(Oc1cc(Oc2ccc(OC(F)(F)F)cc2)ccc1Oc1ccc(C(C)(C)C)cc1)C(=O)O (stereo not shown) ?
Output: 24

Input: What do you get for CC(C)(C)c1ccc(CN(C(=O)C(=O)O)c2ccc(-c3ccc(OC(F)(F)F)cc3)cc2Cl)cc1 ?
Output: 7

Input: What do you get for O=C(O)CCc1ccc(-c2ccc(OC(F)(F)F)cc2)cc1Oc1ccc(C(F)(F)F)cc1 ?
Output: 11

Input: What do you get for O=C(O)C(=O)N(CCCCc1ccccc1)c1cc(-c2ccc(OC(F)(F)F)cc2)ccc1OCCCCc1ccccc1 ?
Output: 10

Continue with the compound presented below.
Input: Which inhibition at 0.3 µM reading was recorded for the compound CC(C)(C)[C@H]1CC[C@H](CN(C(=O)C(=O)O)c2ccc(-c3ccc(OC(F)(F)F)cc3)cc2)CC1 ?
Output: 9

* * *

# Experimental system: recombinant human PAI-1 (Homo sapiens)
# Protocol details: biochemical
# Test conditions: read-out: Inhibition Rate of PAI-1 Activity (%)
In this section we review reported inhibition at 10 µM values for a set of compounds.
Please state the figure in %; there is no need to write the unit.

Solved entries (count: 3):
Input: Which inhibition at 10 µM reading was recorded for the compound CC(C)(C)c1ccc(CN(C(=O)C(=O)O)c2ccc(-c3ccc(OC(F)(F)F)cc3)cc2OC(F)(F)F)cc1 [Compound 151] ?
Output: 80

Input: What do you get for CC(C)(C)c1ccc(-c2ccc(N(Cc3ccc(C(F)(F)F)cc3)C(=O)C(=O)O)cc2)cc1 [Compound 205] ?
Output: 80

Input: What do you get for CC(C)(C)c1ccc(CN(C(=O)C(=O)O)c2ccc(-c3ccc(F)cc3)cc2)cc1 [Compound 127] ?
Output: 43

Continue with the compound presented below.
Input: Which inhibition at 10 µM reading was recorded for the compound Cc1cc(-c2ccc(OC(F)(F)F)cc2)cc(N(Cc2ccc(C(C)(C)C)cc2)C(=O)C(=O)O)c1 [Compound 178] ?
Output: 88
